Entry source: paper PMC10673058

MEASURED ON: TbPTR1 (Trypanosoma brucei brucei, UniProt O76290)
Construct: His6 (N); made in house; host or cells: E. coli BL21 (DE3), vector pET 15b::TbPTR1His (strain from the group of M. Paola Costi, Modena)
METHOD NOTES: Spectrophotometric enzyme inhibition assay, recombinant TbPTR1
Format: biochemical
CONDITION CONTEXT: read-out: IC50 TbPTR1
METRIC NAME: IC50 (µM)
Give just the numeric value; µM need not be written.

COc1c(O)cc2c(=O)c3c(O)cc(O)c(CC=C(C)C)c3oc2c1CC=C(C)C ... 74.4
O=C(/C=C/c1ccc(O)c(O)c1/C=C/c1ccc(O)c(O)c1)O[C@H](Cc1ccc(O)c(O)c1)C(=O)O ... 85.1
OC[C@H]1O[C@@H](Oc2c(O)cc(O)cc2/C=C/c2ccc(O)cc2)[C@H](O)[C@@H](O)[C@@H]1O ... 83.6

Proceeding to the next molecule to report its IC50.
Asked: Return the recorded IC50 value; entry: C=C(C)[C@H](CC=C(C)C)Cc1c(O)cc(O)c2c1O[C@H](c1ccc(O)cc1O)CC2=O
Given back: 31.8

###

MEASURED ON: TbDHFR (Trypanosoma brucei brucei)
Construct: pET 11D::TbDHFRHis vector design for the recombinant overexpression of TbDHFR in E. coli; His; made in house; host or cells: E. coli BL21(DE3), vector pET 11D::TbDHFRHis
Sequence (Q27783 28-238 limits assumed): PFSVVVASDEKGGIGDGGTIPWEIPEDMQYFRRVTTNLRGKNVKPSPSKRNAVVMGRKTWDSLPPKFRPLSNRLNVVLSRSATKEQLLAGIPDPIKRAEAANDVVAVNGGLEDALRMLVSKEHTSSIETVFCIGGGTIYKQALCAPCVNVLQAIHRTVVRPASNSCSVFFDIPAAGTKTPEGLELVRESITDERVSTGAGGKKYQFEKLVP
METHOD NOTES: Spectrophotometric enzyme inhibition assay, recombinant TbDHFR
Format: biochemical
CONDITION CONTEXT: read-out: IC50 TbDHFR
Description: Based on the in vitro assays against TbPTR1 and LmPTR1 performed in the previous works of our group, as well as the in silico results obtained from the current study, a total of 47 natural products were tested against the target enzymes. The saturating conditions for TbDHFR and LmDHFR were determined using the diagrams depicted in Figures S17 and S19 in the Supplementary Materials. […]
pIC50: −log10 of the molar value.
Please use y whenever pIC50 is not below 6, and n whenever it is.

Observe how each entry below is paired with its result.
C=C(C)[C@H](CC=C(C)C)Cc1c(O)cc(O)c2c1O[C@H](c1ccc(O)cc1O)CC2=O ... n
CCC(C)C(=O)c1c(O)c(C/C=C(\C)CCC=C(C)C)c(O)c2c([C@H](CC)OC(C)=O)cc(=O)oc12 (stereo partly drawn) ... n

Asked: In plain terms: is recorded pIC50 at least 6 for COc1c(CC=C(C)C)c(O)c([C@H](CC(C)C)c2c(O)c(CC=C(C)C)c(O)c(C(C)=O)c2O)c(O)c1C(C)=O ?
Given back: n

Asked: In plain terms: is recorded pIC50 at least 6 for CC(C)=CCc1c(O)ccc(C(=O)CCc2ccc(O)cc2)c1O ?
Given back: n

Asked: In plain terms: is recorded pIC50 at least 6 for COc1ccc2c(c1)CCN=C2Cc1cc(OCc2ccccc2)c(OC)cc1C ?
Given back: n

Asked: In plain terms: is recorded pIC50 at least 6 for OC[C@H]1O[C@@H](Oc2c(O)cc(O)cc2/C=C/c2ccc(O)cc2)[C@H](O)[C@@H](O)[C@@H]1O ?
Given back: n

Asked: In plain terms: is recorded pIC50 at least 6 for COc1c(O)cc2c(=O)c3c(O)cc(O)c(CC=C(C)C)c3oc2c1CC=C(C)C ?
Given back: y

Asked: In plain terms: is recorded pIC50 at least 6 for CCC/C=C\C/C=C\CCCCCCCc1cccc(O)c1C(=O)O ?
Given back: y

Asked: In plain terms: is recorded pIC50 at least 6 for CC(C)=CCC/C(C)=C/COc1ccc2oc3cc(O)cc(O)c3c(=O)c2c1 ?
Given back: n

###

MEASURED ON: LmDHFR (Leishmania major, UniProt P07382)
Construct: The DNA fragment encoding LmDHFR was amplified by Phusion DNA polymerase; His6 (N); made in house; host or cells: E. coli BL21(DE3), vector pET 11D::LmDHFRHis
Sequence (P07382 26-229 limits assumed): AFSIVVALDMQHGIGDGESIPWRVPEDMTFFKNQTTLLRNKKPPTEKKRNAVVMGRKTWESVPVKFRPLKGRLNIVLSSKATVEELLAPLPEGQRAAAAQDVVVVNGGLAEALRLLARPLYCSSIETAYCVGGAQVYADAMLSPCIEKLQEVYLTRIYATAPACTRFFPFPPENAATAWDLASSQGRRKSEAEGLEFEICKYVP
METHOD NOTES: Spectrophotometric enzyme inhibition assay, recombinant LmDHFR
Assay type: biochemical
CONDITION CONTEXT: read-out: EC50 LmDHFR (footnote a)
METRIC NAME: pEC50
pEC50 is a log-scale quantity: -log10 of the concentration expressed in molar.

Asked: Return the recorded pEC50 value; entry: CCC(C)C(=O)c1c(O)c(C/C=C(\C)CCC=C(C)C)c(O)c2c([C@H](CC)OC(C)=O)cc(=O)oc12 (stereo partly shown) [Compound 20, surangin B]
Given back: 5.33

###

MEASURED ON: TbPTR1 (Trypanosoma brucei brucei, UniProt O76290)
Construct: His6 (N); made in house; host or cells: E. coli BL21 (DE3), vector pET 15b::TbPTR1His (strain from the group of M. Paola Costi, Modena)
Sequence (O76290 1-268): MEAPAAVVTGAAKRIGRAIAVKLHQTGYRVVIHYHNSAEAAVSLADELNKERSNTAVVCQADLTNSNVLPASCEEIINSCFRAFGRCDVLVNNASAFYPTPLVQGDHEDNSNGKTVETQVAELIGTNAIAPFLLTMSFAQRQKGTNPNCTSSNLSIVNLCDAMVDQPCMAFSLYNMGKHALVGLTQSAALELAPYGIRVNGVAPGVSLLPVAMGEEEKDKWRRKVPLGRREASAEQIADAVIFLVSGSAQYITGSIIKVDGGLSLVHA
METHOD NOTES: Spectrophotometric enzyme inhibition assay, recombinant TbPTR1
Type: biochemical
CONDITION CONTEXT: read-out: EC50 TbPTR1 (footnote a)
METRIC NAME: EC50 (µM)
Give just the numeric value; µM need not be written.

Here are 2 compounds together with their reported answers.
CC(C)=CCC/C(C)=C/COc1ccc2oc3cc(O)cc(O)c3c(=O)c2c1 [Compound 15] ... 32.4
COc1c(CC=C(C)C)c(O)c([C@H](CC(C)C)c2c(O)c(CC=C(C)C)c(O)c(C(C)=O)c2O)c(O)c1C(C)=O [Compound 21, acrovestone] ... 36.8

Proceeding to the next compound to report its EC50.
Asked: Return the recorded EC50 value; entry: COc1cc(C2OC(=O)C3C(c4ccc(O)c(OC)c4)OC(=O)C23)ccc1O (stereo not drawn) [Compound 22]
Given back: 37.8

###

Each item that follows carries a reported pEC50.
MEASURED ON: hDHFR (Homo sapiens, UniProt P00374)
Construct: His
Sequence (P00374 whole entry): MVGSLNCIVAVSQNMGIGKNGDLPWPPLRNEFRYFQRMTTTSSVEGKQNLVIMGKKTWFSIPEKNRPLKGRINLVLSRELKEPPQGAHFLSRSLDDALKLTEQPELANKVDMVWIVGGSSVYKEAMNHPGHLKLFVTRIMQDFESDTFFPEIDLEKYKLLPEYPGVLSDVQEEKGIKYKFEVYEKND
METHOD NOTES: Spectrophotometric enzyme inhibition assay, recombinant hDHFR (selectivity)
CONDITION CONTEXT: read-out: EC50 hDHFR (footnote a)
pEC50 is a log-scale quantity: -log10 of the concentration expressed in molar.

Here are 2 compounds together with their reported answers.
C=C(C)[C@H](CC=C(C)C)Cc1c(O)cc(O)c2c1O[C@H](c1ccc(O)cc1O)CC2=O [Compound 9, sophoraflavanone G] ... 4.50
COc1cc([C@@H]2Oc3cc(-c4oc5cc(O)cc(O)c5c(=O)c4O)ccc3O[C@H]2CO)ccc1O [Compound 4, 2,3-dehydrosilybin B] ... 5.42

Proceeding to the next compound to report its pEC50.
Asked: Jot down pEC50 (hDHFR (Homo sapiens, UniProt P00374)) of CC(C)=CCc1c(O)cc2oc3cc(O)c(O)c(CCC(C)(C)O)c3c(=O)c2c1O [Compound 6, garcinone c] .
Given back: 5.77

###

Each item that follows carries a reported pIC50.
MEASURED ON: hDHFR (Homo sapiens, UniProt P00374)
Construct: His
METHOD NOTES: Spectrophotometric enzyme inhibition assay, recombinant hDHFR (selectivity)
Experimental: For 15 compounds, there was enough substance available to be tested in selectivity studies against hDHFR. The used hDHFR concentration was 0.64 mg/mL, with a specific activity of 0.62 U/mg. All measurements were carried out using the saturating concentrations for dihydrofolate (100 μM) and NADPH (50 μM) in Buffer C (50 mM Tris/HCl (pH 7.6), 250 mM NaCl, 10 mM BME). The saturating conditions for hDHFR were determined using the diagrams depicted in Figure S20 in the Supplementary Materials. […]
pIC50 is a log-scale quantity: -log10 of the concentration expressed in molar.

O=C(/C=C/CCc1ccc(O)c(O)c1)CCc1ccc(O)c(O)c1 [Compound 17, dehydrohirsutanone] ... 4.39
CC(C)=CCc1c(O)cc2oc3cc(O)c(O)c(CCC(C)(C)O)c3c(=O)c2c1O ... 5.77
COc1c(CC=C(C)C)c(O)c([C@H](CC(C)C)c2c(O)c(CC=C(C)C)c(O)c(C(C)=O)c2O)c(O)c1C(C)=O ... 4.70
CC(C)=CCc1c(O)cc2oc3cc(O)c(O)c(CC=C(C)C)c3c(=O)c2c1O ... 5.57
COc1cc(/C=C/C(=O)CC(=O)/C=C/c2ccc(O)c(OC)c2)ccc1O ... 4.47

Asked: Return the recorded pIC50 value; entry: CCC/C=C\C/C=C\CCCCCCCc1cccc(O)c1C(=O)O
Given back: 5.62

Asked: Return the recorded pIC50 value; entry: O=C(OC1Cc2c(O)cc(O)cc2OC1c1ccc(O)c(O)c1)c1cc(O)c(O)c(O)c1 (single isomer, unassigned; (-)) [Compound 3, (−)-catchin-3-gallate]
Given back: 5.38
